Test system: Plasmodium falciparum
Experiment: Relative activity compared to artemisinin against Plasmodium falciparum Sierra Leone D6
Format: functional
measuredProperty: Relative activity
# print the numeric value only

Example entries begin here.
{"compound": "C[C@@H]1CC[C@H]2[C@@H](CCCc3ccccc3)C(=O)O[C@@H]3O[C@@]4(C)CC[C@@H]1[C@]32O4", "numericReadout": 0.15}
{"compound": "CC(C)CC[C@H]1C(=O)O[C@@H]2O[C@@]3(C)CC[C@H]4[C@H](C)CC[C@@H]1[C@@]24O3", "numericReadout": 0.13}

Kindly note the recorded Relative activity for CC(C)[C@H]1C(=O)O[C@@H]2O[C@@]3(C)CC[C@H]4[C@H](C)CC[C@@H]1[C@@]24O3 , which is 0.02

Kindly note the recorded Relative activity for C[C@@H]1CC[C@H]2[C@@H](C)C(=O)O[C@@H]3O[C@@]4(C)CC[C@@H]1[C@]32O4 [DEOXYARTEMISININ] , which is 0.001

Kindly note the recorded Relative activity for CC[C@H]1C(=O)O[C@@H]2O[C@@]3(C)CC[C@H]4[C@H](C)CC[C@@H]1[C@@]24O3 , which is 0.001

Kindly note the recorded Relative activity for CCCCCC[C@H]1C(=O)O[C@@H]2O[C@@]3(C)CC[C@H]4[C@H](C)CC[C@@H]1[C@@]24O3 , which is 0.07

Kindly note the recorded Relative activity for CCC[C@H]1C(=O)O[C@@H]2O[C@@]3(C)CC[C@H]4[C@H](C)CC[C@@H]1[C@@]24O3 , which is 0.06

###

Test system: Plasmodium falciparum
Test: Relative activity against Plasmodium falciparum D6 (Sierra Leone) compared to artemisinin
Type: functional
Relative activity values for the molecules below.
# print the numeric value only

Example entries begin here.
{"molecule": "C/C=C\\CC1C(=O)O[C@@H]2O[C@@]3(C)CC[C@H]4[C@H](C)CC[C@@H]1[C@@]24OO3 (single isomer, unassigned)", "studyTarget": "Plasmodium falciparum", "Relative activity": 0.09}
{"molecule": "CCC[C@H]1C(=O)O[C@@H]2O[C@@]3(C)CC[C@H]4[C@H](C)CC[C@@H]1[C@@]24OO3", "studyTarget": "Plasmodium falciparum", "Relative activity": 5.5}
{"molecule": "CCCCCCCCCCCCCC[C@H]1C(=O)O[C@@H]2O[C@@]3(C)CC[C@H]4[C@H](C)CC[C@@H]1[C@@]24OO3", "studyTarget": "Plasmodium falciparum", "Relative activity": 0.001}
{"molecule": "C[C@@H]1CC[C@H]2C(C)(C)C(=O)O[C@@H]3O[C@@]4(C)CCC1[C@]32OO4 (stereo partly drawn)", "studyTarget": "Plasmodium falciparum", "Relative activity": 0.02}
{"molecule": "CC(C)C[C@H]1C(=O)O[C@@H]2O[C@@]3(C)CC[C@H]4[C@H](C)CC[C@@H]1[C@@]24OO3", "studyTarget": "Plasmodium falciparum", "Relative activity": 0.2}

Kindly note the recorded Relative activity for C[C@@H]1CC[C@H]2[C@@H](CC(=O)O)C(=O)O[C@@H]3O[C@@]4(C)CC[C@@H]1[C@]32OO4 , which is 0.002

Kindly note the recorded Relative activity for CC12CCC3CCCC4CC(=O)OC(O1)C34OO2 (stereo not drawn) , which is 0.24

Kindly note the recorded Relative activity for C=CC[C@H]1C(=O)O[C@@H]2O[C@@]3(C)CC[C@H]4[C@H](C)CC[C@@H]1[C@@]24OO3 , which is 0.31

Data provenance is ChEMBL document CHEMBL1126576.
